- study_target: Mcl-1 protein (UniProtKB Q07820) (Homo sapiens (Human), UniProt Q07820)
- Sequence (Q07820 whole entry): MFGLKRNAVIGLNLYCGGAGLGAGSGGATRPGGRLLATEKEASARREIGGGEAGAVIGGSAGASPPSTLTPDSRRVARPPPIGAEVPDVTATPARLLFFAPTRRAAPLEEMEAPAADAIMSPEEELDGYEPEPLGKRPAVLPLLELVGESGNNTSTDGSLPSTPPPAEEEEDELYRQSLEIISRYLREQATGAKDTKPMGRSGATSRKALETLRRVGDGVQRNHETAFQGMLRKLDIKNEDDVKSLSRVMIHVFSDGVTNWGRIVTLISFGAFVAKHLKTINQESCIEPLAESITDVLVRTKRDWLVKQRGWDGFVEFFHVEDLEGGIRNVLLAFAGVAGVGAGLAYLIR
- experimental_details: Inhibition of Mcl-1 by the fluorescence polarisation assay (Example A, Method A)
- measurement_conditions: fluorescence polarization assay
Ki less than 400 nM is Met; Ki greater than or equal to 400 nM is Not met.

>  <compound>
CN(CCc1ccccc1)C(=O)C1Cc2ccccc2[C@]12CC[C@@](Nc1cccc(Cl)c1)(C(=O)O)CC2 (single isomer, unassigned) [Example 407]

>  <study_target>
Mcl-1 protein (UniProtKB Q07820) (Homo sapiens (Human), UniProt Q07820)

>  <assigned_label>
Not met

$$$$
>  <compound>
CC1=Nc2ccc(Br)cc2[C@]12CC[C@](Nc1cccc(Br)c1)(C(=O)O)CC2

>  <study_target>
Mcl-1 protein (UniProtKB Q07820) (Homo sapiens (Human), UniProt Q07820)

>  <assigned_label>
Not met

$$$$
>  <compound>
COc1cccc([C@@H]2Cc3ccccc3[C@]23CC[C@@](Nc2cccc(Br)c2)(C(=O)O)CC3)c1

>  <study_target>
Mcl-1 protein (UniProtKB Q07820) (Homo sapiens (Human), UniProt Q07820)

>  <assigned_label>
Met

$$$$
>  <compound>
CC1=C(C(C)C)c2ccccc2[C@]12CC[C@@](Nc1cccc(Br)c1)(C(=O)O)CC2

>  <study_target>
Mcl-1 protein (UniProtKB Q07820) (Homo sapiens (Human), UniProt Q07820)

>  <assigned_label>
Not met

$$$$
>  <compound>
O=C(O)[C@]1(Nc2cccc(Cl)c2)CC[C@@]2(CC1)c1ccccc1CC2CCOc1ccncc1F (stereo partly shown)

>  <study_target>
Mcl-1 protein (UniProtKB Q07820) (Homo sapiens (Human), UniProt Q07820)

>  <assigned_label>
Met

$$$$
>  <compound>
CNc1cc(OC[C@H](C)C[C@H]2Cc3ccccc3[C@]23CC[C@@](Nc2cccc(Cl)c2)(C(=O)O)CC3)ccn1

>  <study_target>
Mcl-1 protein (UniProtKB Q07820) (Homo sapiens (Human), UniProt Q07820)

>  <assigned_label>
Met

$$$$

For the next question, use this compound.
API: query returns whether the compound falls strictly under 400 nM in Ki. Query: O=C1CCc2c(OCCCC3Cc4ccccc4[C@]34CC[C@@](Nc3cccc(Cl)c3)(C(=O)O)CC4)cccc21 (stereo partly shown)
Not met

Origin of values: patent US20240150293A1
